SYSTEM: DS-Cav1 (RSV F-protein, pre-form, in-house) (respiratory syncytial virus (RSV), UniProt P03420 26-513)
Sequence (P03420 26-524): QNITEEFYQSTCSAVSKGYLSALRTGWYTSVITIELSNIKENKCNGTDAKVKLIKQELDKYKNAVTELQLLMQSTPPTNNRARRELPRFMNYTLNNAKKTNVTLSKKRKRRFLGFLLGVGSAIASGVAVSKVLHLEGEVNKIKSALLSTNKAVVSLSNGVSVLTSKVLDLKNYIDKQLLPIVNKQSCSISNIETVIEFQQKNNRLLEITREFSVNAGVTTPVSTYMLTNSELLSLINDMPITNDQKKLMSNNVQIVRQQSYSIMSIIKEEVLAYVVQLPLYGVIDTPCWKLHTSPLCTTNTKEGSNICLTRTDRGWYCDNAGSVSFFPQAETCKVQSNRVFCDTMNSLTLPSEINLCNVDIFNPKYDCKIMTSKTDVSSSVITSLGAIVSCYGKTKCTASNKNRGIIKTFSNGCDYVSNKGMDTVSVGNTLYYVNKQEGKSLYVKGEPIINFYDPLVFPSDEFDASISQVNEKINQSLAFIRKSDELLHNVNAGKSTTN
ASSAY_PROCEDURE: ELISA, coated DS-Cav1, IgG titrated
pKd: −log10 of the molar value.
This listing pairs binders with measured pKd.

Consider the worked cases shown below.
>  <BINDER>
5C9 (antibody, V domains shown, IgG made in Expi293; also called #61; 61) VH: QVQLVQSGSEVKKPGASVKVSCKASGYTFGHYGISWVRQAPGQGLEWMAWISAYNGNTDSIQKVQGRVTMTTDTSTNTAYLELRSLRSDDTAVYYCVRDVPATGGAATADYWGQGTTVTVSS VL: DVVMTQSPLSLPVTLGQPASISCRSSQSLVFSDGNTYLSWFQQRPGQSPRRLIYKVSNRDSGVPDRFSASGSGTDFTLKISRVEADDVGVYYCMQVTHWPRTFGQGTKLEIKR

>  <VALUE_REPORTED>
~9.10

$$$$
>  <BINDER>
2F1 (antibody, V domains shown, IgG made in Expi293; also called #24; 24) VH: EVQLVESGGGLVKPGGSLRLSCAASGFTFTSYRMHWVRQAPGKGLEWVSSITGGGNYIEYADSVKGRFTISRDNAKNSLDLQMNSLRAEDTAIYYCARDMYGLGSYYSPNYFDPWGQGTLVTVSS VL: QSVLTQPPSVSGAPGQRVTISCTGSSSNIGAGYDVHWYQQVPGTAPKLLIFGSTNRPSGVPDRFSGSKSGASASLAITGLQTEDEADYYCQSYDRSLSAWVFGGGTKLTVLG

>  <VALUE_REPORTED>
~9.18

$$$$
>  <BINDER>
2G11 (antibody, V domains shown, IgG made in Expi293; also called #29; 29) VH: EVQLVESGGGLVQPGGSLRLSCAASGFTFTSYRMHWVRQAPGKGLEWVSSITGGGNYIEYADSVKGRFTISRDNAKNSLDLQMNSLRAEDTAIYYCARDMYGLGSYYSPNYFDPWGQGTLVTVSS VL: QSVLTQPPSVSGAPGQRVTISCTGSSSNIGAGYDVHWYQQLPGAAPRLLMFGNSNRPSGVPDRFSGSKSGTSASLAITGLQAEDEADYYCQSYDSSLSYVFGTGTKVTVLG

>  <VALUE_REPORTED>
~9.07

$$$$
>  <BINDER>
1E6 (antibody, V domains shown, IgG made in Expi293; also called #22; 22) VH: EVQLVESGGGLVKPGGSLRLSCAASGFTFTSYRMHWVRQAPGKGLEWVSSITGGGNYIEYADSVKGRFTISRDNAKNSLDLQMNSLRAEDTAIYYCARDMYGLGSYYSPNYFDPWGQGTLVTVSS VL: QSVLTQPPSVSGAPGQRVTISCTGSSSNIGAGYDVHWYQQLPGRAPKLLIFANTNRPSGVPDRFSGSKSGASASLAITGLQADDEADYYCQSYDRSLSHVFGTGTKVTVLG

>  <VALUE_REPORTED>
~9.47

$$$$
>  <BINDER>
13C2 (antibody, V domains shown, IgG made in Expi293; also called #25; 25) VH: EVQLVESGGGLVKPGGSLRLSCAASGFTFTSYRMHWVRQAPGKGLEWVSSITGGGNYIEYADSVKGRFTISRDNAKNSLDLQMNSLRAEDTAIYYCARDMYGLGSYYSPNYFDPWGQGTLVTVSS VL: QSVLTQPPSVSGAPGQRVTISCTGSSSNIGAGYDVHWYQQVPGTAPKLLIFGSTDRPSGVPDRFSGSKSGNTASLTISGLQAEDEADYYCQSYDRSLSHVFGTGTKVTVLG

>  <VALUE_REPORTED>
~8.94

$$$$

Now, please, on to the next binder.
pKd measured on 4G4 (antibody, V domains shown, IgG made in Expi293; also called #10; 10) VH: EVQLVESGGGLVKPGGSLRLSCAGSGFTFSSYTMHWVRQAPGKGLEWVSSITGGSSYVDYSASVKGRFTISRDNAQSSLYLQMNSLRAEDTAVYYCARDDYGSGSYSNWFDPWGQGTLVTVSS VL: QSVLTQPPSVSGAPGQRVTISCTGNSSNLGAGYDVHWYQQLPGTAPKLLIYANTNRPSGVPDRFSGSKSGASASLAITGLQTEDEADYYCQSYDRSLSHVFGTGTKVTVLG = ~9.42
